B1: SAT2 (parent)
chain: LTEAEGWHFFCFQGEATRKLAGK

- Variants of: B1
- Test: protein stability index of a GFP-peptide fusion (GPS, HEK-293T) (PSI 1-6); higher = more stable;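 note: lentivirally expressed fusions sorted by FACS into six bins by GFP to DsRed ratio, PSI derived from sequencing read proportions per bin multiplied by bin number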
- Conditions: c terminus: native
# key: entry, value: protein stability index
Enter a number only.

Previously resolved entries follow.
H8R ... 1.54
L20N ... 3.41
A4S ... 2.66
L20H ... 2.64
G22A ... 1.5

// below: protein stability index requested for another variant
Determine from records and report protein stability index for A4G
2.68
